# assayedSystem: T1, APRIL (Acro Biosystems, Cat: APL-H52D1) (UniProt O75888 115-250, limits assumed)
# T1 construct: also called ARPIL
# T1 sequence (looked up): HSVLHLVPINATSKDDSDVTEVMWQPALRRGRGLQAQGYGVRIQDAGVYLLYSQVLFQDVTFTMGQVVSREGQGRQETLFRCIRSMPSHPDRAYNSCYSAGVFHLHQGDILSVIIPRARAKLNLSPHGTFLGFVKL
# procedureText: ELISA, APRIL coated at 1 ug/mL, anti-human Fc-HRP, OD450
measuredEndpoint: pEC50
Keep in mind that pEC50 stands for -log10 of concentration in molar terms.

query: Fill in the blank: the reported pEC50 of B575704 (Fc fusion, TACI-BCMA fusion protein; also called BCMA-ECD-TACI-T2-Fc) MLQMAGQCSQNEYFDSLLHACIPCQLRCSSNTPPLTCQRYCNASVTNSVKGTNASRVDQEERFPQGLWTGVAMRSCPEEQYWDPLLGTCMSCKTICNHQSQRTCAAFCRSLSCRKEQGKFYDHLLRDCISCASICGQHPKQCAYFCENKLRSPVNLPPELDKTHTCPPCPAPEAEGAPSVFLFPPKPKDTLMISRTPEVTCVVVDVSHEDPEVKFNWYVDGVEVHNAKTKPREEQYNSTYRVVSVLTVLHQDWLNGKEYKCKVSNKALPSSIEKTISKAKGQPREPQVYTLPPSRDELTKNQVSLTCLVKGFYPSDIAVEWESNGQPENNYKTTPPVLDSDGSFFLYSKLTVDKSRWQQGNVFSCSVMHEALHNHYTQKSLSLSPGK is ____.
result: 9.72

query: What about this binder? B575701 (Fc fusion, TACI-BCMA fusion protein; also called TACI-d2-BCMA-ECD-Fc) LSCRKEQGKFYDHLLRDCISCASICGQHPKQCAYFCENKLRSPGMLQMAGQCSQNEYFDSLLHACIPCQLRCSSNTPPLTCQRYCNASVTNSVKGTNADKTHTCPPCPAPEAEGAPSVFLFPPKPKDTLMISRTPEVTCVVVDVSHEDPEVKFNWYVDGVEVHNAKTKPREEQYNSTYRVVSVLTVLHQDWLNGKEYKCKVSNKALPSSIEKTISKAKGQPREPQVYTLPPSRDELTKNQVSLTCLVKGFYPSDIAVEWESNGQPENNYKTTPPVLDSDGSFFLYSKLTVDKSRWQQGNVFSCSVMHEALHNHYTQKSLSLSPGK
result: 9.69

query: What about this binder? B575703 (Fc fusion, TACI-BCMA fusion protein; also called TACI-T2-BCMA-ECD-Fc) SRVDQEERFPQGLWTGVAMRSCPEEQYWDPLLGTCMSCKTICNHQSQRTCAAFCRSLSCRKEQGKFYDHLLRDCISCASICGQHPKQCAYFCENKLRSPVNLPPELMLQMAGQCSQNEYFDSLLHACIPCQLRCSSNTPPLTCQRYCNASVTNSVKGTNADKTHTCPPCPAPEAEGAPSVFLFPPKPKDTLMISRTPEVTCVVVDVSHEDPEVKFNWYVDGVEVHNAKTKPREEQYNSTYRVVSVLTVLHQDWLNGKEYKCKVSNKALPSSIEKTISKAKGQPREPQVYTLPPSRDELTKNQVSLTCLVKGFYPSDIAVEWESNGQPENNYKTTPPVLDSDGSFFLYSKLTVDKSRWQQGNVFSCSVMHEALHNHYTQKSLSLSPGK
result: 9.58

query: What about this binder? Telitacicept (RCT-18) (Fc fusion, Positive control TACI-Fc; also called RC18) SRVDQEERFPQGLWTGVAMRSCPEEQYWDPLLGTCMSCKTICNHQSQRTCAAFCRSLSCRKEQGKFYDHLLRDCISCASICGQHPKQCAYFCENKLRSPVNLPPELDKTHTCPPCPAPEAEGAPSVFLFPPKPKDTLMISRTPEVTCVVVDVSHEDPEVKFNWYVDGVEVHNAKTKPREEQYNSTYRVVSVLTVLHQDWLNGKEYKCKVSNKALPSSIEKTISKAKGQPREPQVYTLPPSRDELTKNQVSLTCLVKGFYPSDIAVEWESNGQPENNYKTTPPVLDSDGSFFLYSKLTVDKSRWQQGNVFSCSVMHEALHNHYTQKSLSLSPGK
result: 9.15

query: What about this binder? B575702 (Fc fusion, TACI-BCMA fusion protein; also called BCMA-ECD-TACI-d2-Fc) MLQMAGQCSQNEYFDSLLHACIPCQLRCSSNTPPLTCQRYCNASVTNSVKGTNALSCRKEQGKFYDHLLRDCISCASICGQHPKQCAYFCENKLRSPGDKTHTCPPCPAPEAEGAPSVFLFPPKPKDTLMISRTPEVTCVVVDVSHEDPEVKFNWYVDGVEVHNAKTKPREEQYNSTYRVVSVLTVLHQDWLNGKEYKCKVSNKALPSSIEKTISKAKGQPREPQVYTLPPSRDELTKNQVSLTCLVKGFYPSDIAVEWESNGQPENNYKTTPPVLDSDGSFFLYSKLTVDKSRWQQGNVFSCSVMHEALHNHYTQKSLSLSPGK
result: 9.77
